Source: patent US20230357348A1

target: human GLP-1 receptor (hGLP-1R) (human, UniProt P43220 24-463); test: cell-based or functional assay
Starred links: 1 amine or outer side, 2 acyl side, 3 side chain; linkers in the order of their positions; H or OH if unused. Non-standard residues stand in square brackets, D forms with d. Groups on a side chain read outwards from the residue. Primed or numbered codes have the meaning given here. No end group written: not given here. *: point of attachment. (PEG)2″ = polyethylene glycol 2 linker unit; Dip = N[C@H](C(=O)O)C(c1ccccc1)c1ccccc1; γGlu = O=C(O)[C@H](CCC(=O)[*:2])N[*:1]; Stearoyl = CCCCCCCCCCCCCCCCCC(=O)*; Palmitoyl = CCCCCCCCCCCCCCCC(=O)*; αMeF = C[C@](N)(Cc1ccccc1)C(=O)O; (PEG)2 = polyethylene glycol 2; PEG2′ = polyethylene glycol 2; Dodecyl = CCCCCCCCCCCC*; Aib = CC(C)(N)C(=O)O
measured_attribute: hGLP-1R EC50 (pM)
A number alone suffices; assume pM.

Answer with reported hGLP-1R EC50 (pM) of HSQGS[αMeF]TSDVSK[αMeF]LDSK([(PEG)2-(PEG)2-γGlu-γGlu-Palmitoyl])AAQD[αMeF]VQ[Aib]LEAGG-NH2 [Peptide 79]
1.73

Answer with reported hGLP-1R EC50 (pM) of HSQGS[αMeF]TSDVSK[Dip]LDSK([(PEG)2-(PEG)2-γGlu-γGlu-Stearoyl])AAQD[αMeF]VQ[Dip]LEA-NH2 [Peptide 55]
18.8

Answer with reported hGLP-1R EC50 (pM) of HSQGS[αMeF]TSDVSK[Aib]LDSK([(PEG)2″-(PEG)2″-γGlu-γGlu-Stearyl])AAQD[αMeF]VQ[Aib]IAN-NH2 [Peptide 100]
0.258

Answer with reported hGLP-1R EC50 (pM) of HSQGS[αMeF]TSDVSK[Dip]LDSK([(PEG)2-(PEG)2-γGlu-γGlu-Dodecyl])AAQD[αMeF]VE[Aib]IINT-NH2 [Peptide 62]
10.1

Answer with reported hGLP-1R EC50 (pM) of HSQGS[αMeF]TSDVSKILDSK([PEG2′-PEG2′-γGlu-Stearoyl])AAQD[αMeF]VQ[Aib]IINT-NH2 [Peptide 120]
1.81
